assay: inhibitors of Chlamydomonas gravitaxis, primary screen, whole organism, Chlamydomonas reinhardtii, WT vs cilia-less mutant, absorbance, 96-well (AID 463189); details: OD600 absorbance, 2 days, at 10 µM, active compounds read high;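 note: 0% = wild type cc124 cells in DMSO and 100% = ciliumless bld1 mutant cells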
Test Readout: inhibition (%)
Form entry: value (%) — number only.

Cc1nnc2n(-c3ccccc3)c(=O)c3c4c(sc3n12)CCCC4
24.9

[Q] Could you tell me which inhibition is on file for `CCOc1ccc(C2=Nn3c(nnc3-c3cccnc3)SC2)cc1` ?
[A] 8.58

[Q] What value of inhibition has been recorded for this entry: `O=C(CN1C(=O)c2ccccc2S1(=O)=O)c1ccccc1`
[A] -6.59

[Q] Dear colleague, I am looking for the recorded inhibition of the following compound: COc1ccc(C(CC(=O)N2CCOCC2)C(C)C)cc1 (stereo unspecified)
[A] 19.8

[Q] Dear colleague, I am looking for the recorded inhibition of the following compound: `C=C(C)CN1CCN(c2c(CCC#N)c(C)c(C#N)c3nc4ccccc4n23)CC1`
[A] 17.9

[Q] Could you share which inhibition value was measured for `COC(=O)CN(c1nc(C)cc(OC)n1)S(=O)(=O)c1ccccc1` ?
[A] -16.2

[Q] Which inhibition is reported for this compound? `CCSc1nc(N)c2c3c(sc2n1)CCC3`
[A] -5.03

[Q] Look up inhibition for this compound: COc1ccc(C2/C(=C(/O)c3cnn(-c4ccccc4)c3C)C(=O)C(=O)N2CCN(C)C)cc1OC (stereo unspecified)
[A] -4.78
